Biological target: Cytochrome P450 2C19 (Homo sapiens, UniProt P33261)
Sequence (P33261 whole entry): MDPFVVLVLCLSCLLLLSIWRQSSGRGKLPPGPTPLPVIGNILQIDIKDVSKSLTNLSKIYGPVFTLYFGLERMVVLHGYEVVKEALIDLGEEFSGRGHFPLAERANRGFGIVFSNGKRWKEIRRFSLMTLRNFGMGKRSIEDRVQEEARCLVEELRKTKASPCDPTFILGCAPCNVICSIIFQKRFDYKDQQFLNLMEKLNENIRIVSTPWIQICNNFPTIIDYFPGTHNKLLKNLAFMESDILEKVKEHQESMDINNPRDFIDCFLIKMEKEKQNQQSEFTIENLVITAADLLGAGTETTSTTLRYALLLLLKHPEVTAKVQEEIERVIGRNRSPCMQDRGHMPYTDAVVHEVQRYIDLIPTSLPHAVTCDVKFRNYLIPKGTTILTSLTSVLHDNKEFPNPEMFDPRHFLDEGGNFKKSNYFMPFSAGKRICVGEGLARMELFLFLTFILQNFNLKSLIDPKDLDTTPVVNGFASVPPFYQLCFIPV
pIC50: −log10 of the molar value.
Measure Name: pIC50

Query block: With Cytochrome P450 2C19 (Homo sapiens, UniProt P33261) as the test system, provide measured pIC50 for this molecule: `O=C(NC1CCCCCC1)c1cc2c(Cl)cc(Cl)cc2[nH]1`
Result block: ≥ 4.70

---

Target: UniProt:P11712
Sequence (P11712 whole entry): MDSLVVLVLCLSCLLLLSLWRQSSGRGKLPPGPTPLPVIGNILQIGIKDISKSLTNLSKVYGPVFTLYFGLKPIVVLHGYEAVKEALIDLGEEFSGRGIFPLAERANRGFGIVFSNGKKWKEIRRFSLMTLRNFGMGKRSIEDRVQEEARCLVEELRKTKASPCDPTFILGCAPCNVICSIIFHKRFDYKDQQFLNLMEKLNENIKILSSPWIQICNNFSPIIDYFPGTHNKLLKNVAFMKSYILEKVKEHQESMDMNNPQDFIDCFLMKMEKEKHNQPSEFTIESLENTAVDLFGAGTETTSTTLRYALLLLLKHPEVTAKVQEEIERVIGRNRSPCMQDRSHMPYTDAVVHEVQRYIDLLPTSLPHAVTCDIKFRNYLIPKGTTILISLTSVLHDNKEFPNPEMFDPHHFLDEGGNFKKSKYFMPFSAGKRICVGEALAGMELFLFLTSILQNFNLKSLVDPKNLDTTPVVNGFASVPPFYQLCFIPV
Assay: Inhibition of CYP2C9 in human liver microsomes preincubated for 5 mins followed by NADPH addition at 10 uM measured after 10 mins by LC-MS/MS analysis relative to control
Type: ADME
Measure Name: inhibition at 10 min, 10 µM (%)
The answer is to be given in %; state only the numeric part.

Query block: Tell us which inhibition at 10 min, 10 µM value is on record for `O=C(NC1CCCCCC1)c1cc2c(Cl)cc(Cl)cc2[nH]1`
Result block: 6

---

Test: Permeability of the compound at 25 uM at pH 5 after 4 hrs by LC-MS based PAMPA
Format: physicochemical
Conditions: read-out: permeability
Measure Name: Papp at 4 h, 25 µM (×10⁻⁶ cm/s)
Give your result in ×10⁻⁶ cm/s as a bare value.

Query block: Tell us which Papp at 4 h, 25 µM value is on record for `O=C(NC1CCCCCC1)c1cc2c(Cl)cc(Cl)cc2[nH]1`
Result block: 0.3

---

Test system: Mycobacterium tuberculosis
Experiment: Antibacterial activity against Mycobacterium tuberculosis by AlamarBlue assay
Format: functional
Measure Name: MIC=<90 (µg/mL)
Enter your answer as a number in µg/mL; do not include the unit.

>>> measured_value("CCCCCCCCNC(=O)c1cc2c(Cl)cc(Cl)cc2[nH]1")
128

Query block: Determine its reported MIC=<90: `C[C@@H]1[C@@H](NC(=O)c2cc3c(Cl)cc(Cl)cc3[nH]2)C[C@H]2C[C@@H]1C2(C)C`
Result block: 0.0078

Query block: Output measured MIC=<90 for this item: `Cc1cc(C)c2[nH]c(C(=O)NC3CCCCCC3)cc2c1`
Result block: 0.0625

Query block: Hello, please tell me recorded MIC=<90 for this one: `Cc1cc(C)c2cc(C(=O)NC3CCCCCC3)[nH]c2c1`
Result block: 0.0039

Query block: Tell us which MIC=<90 value is on record for `Cc1ccc2cc(C(=O)NC3CCCCCC3)[nH]c2c1`
Result block: 0.0313

Query block: Please list MIC=<90 recorded for the compound `O=C(NC1CCCCCC1)c1cc2c(Cl)cc(Cl)cc2[nH]1`
Result block: 0.0039

Query block: Recall and state the measured MIC=<90 for `COc1cc(OC)c2cc(C(=O)NC3CCCCCC3)[nH]c2c1` .
Result block: 0.0625

Query block: Quick one: give measured MIC=<90 for `Cc1cc(C)c2cc(C(=O)NC34CC5CC(CC(C5)C3)C4)oc2c1`
Result block: 1

Query block: Respond only with MIC=<90 recorded for `NNC(=O)c1ccncc1`
Result block: 0.04

Query block: Let me know recorded MIC=<90 for `O=C(NC12CC3CC(CC(C3)C1)C2)c1cc2c(Cl)cc(Cl)cc2[nH]1` , thanks.
Result block: 0.0039

Query block: Fill in reported MIC=<90 for this entry: `Cc1ccc2[nH]c(C(=O)NC3CCCCCC3)cc2c1`
Result block: 0.25

Query block: For the compound `O=C(NC1CCC2(CCCCC2)CC1)c1cc2c(Cl)cc(Cl)cc2[nH]1` , give its measured MIC=<90 value.
Result block: 0.001953

Query block: Give the value of MIC=<90 reported for the following: CC1(C)C2CC[C@@]1(C)C(NC(=O)c1cc3c(Cl)cc(Cl)cc3[nH]1)C2 (stereo not given in full)
Result block: 0.0156

Query block: For `Cc1cc(C)c2cc(CNC(=O)C3CCCCCC3)[nH]c2c1` , write its MIC=<90.
Result block: 16

Query block: Fill in MIC=<90 for record `O=C(Nc1nc2ccc(OC(F)(F)F)cc2s1)C1CCCCCC1`
Result block: 128

Query block: For `Cc1cc(C)c2cc(CNC3CCCCCCC3)[nH]c2c1` , write its MIC=<90.
Result block: 0.125

Query block: Read off the recorded MIC=<90 for `O=C(NC1Cc2ccccc2C1)c1cc2c(Cl)cc(Cl)cc2[nH]1`
Result block: 0.25

Query block: Note MIC=<90 for the compound shown: `C[C@@H](NC(=O)c1cc2c(Cl)cc(Cl)cc2[nH]1)C1CCCCC1`
Result block: 2

Query block: Identify the reported MIC=<90 for the following entry. `Cc1cccc2cc(C(=O)NC3CCCCCC3)[nH]c12`
Result block: 1

Query block: Could you please provide reported MIC=<90 for `O=C(NC1CCCCCC1)c1cc2ccc(Br)cc2[nH]1` ? Thanks!
Result block: 0.0313

Query block: Hello, please tell me recorded MIC=<90 for this one: `Cc1cccc2[nH]c(C(=O)NC3CCCCCC3)cc12`
Result block: 0.0313

Query block: Annotate the compound `O=C(NC1CCCCCCC1)c1cc2cc(Cl)ccc2o1` with its measured MIC=<90.
Result block: 8

Query block: Give MIC=<90 for the following compound: `O=C(NC1CCCCCCC1)c1cc2c(C(F)(F)F)cc(C(F)(F)F)cc2[nH]1`
Result block: 0.0156

Query block: Could you please provide reported MIC=<90 for `C[C@@H]1[C@@H](NC(=O)c2cc3c(F)cc(F)cc3[nH]2)C[C@H]2C[C@@H]1C2(C)C` ? Thanks!
Result block: 0.0039

Query block: Tell me its MIC=<90 given `O=C(NC1CCCCCC1)c1cc2c(F)cc(F)cc2[nH]1` as the entry.
Result block: 0.031
